- Measured on: human BRD4 first bromodomain (BDI_K57-E168) (Homo sapiens (Human))
- Procedure details: TR-FRET bromodomain binding assay, BRD4 first bromodomain
Assignment: determine reported pKi for the given molecules.
Answers are plain numbers, as −log10 of the molar value.

Examples with their reported pKi follow.
1) CN1CCC[C@H]1COc1ccc(S(C)(=O)=O)cc1-c1cn(C)c(=O)c2[nH]ccc12 : 6.65
2) Cn1cc(-c2cc(NS(C)(=O)=O)ccc2Oc2ccc(F)c(F)c2)c2cc[nH]c2c1=O : 8.64
3) Cn1cc(-c2cc(S(C)(=O)=O)ccc2Oc2cccc(F)c2)c2cc[nH]c2c1=O : 8.01

Now for another entry.
## Input For the molecule Cn1cc(-c2cc(S(C)(=O)=O)ccc2OCC2C[C@@H]3CC[C@H]2C3)c2cc[nH]c2c1=O (stereo partly shown) , what pKi is on record?
## Output 8.59

* * *

Assignment: determine reported half-life at 0.5 μM for the given compounds.
- Procedure details: Mouse liver microsome stability assay
- Type: in vitro ADME
- Condition details: male, CD1, mouse, microsomes, pH 7.4
Numbers only, in min.

1. CCS(=O)(=O)Nc1ccc(OC2CCCOC2)c(-c2cn(C)c(=O)c3[nH]ccc23)c1 (centres unmarked) : 7
2. Cn1cc(-c2cc(S(N)(=O)=O)cnc2OC2CCOC2)c2cc[nH]c2c1=O (centres unmarked) : 43
3. COCCS(=O)(=O)Nc1ccc(Oc2ccc(F)cc2F)c(-c2cn(C)c(=O)c3[nH]ccc23)c1 : 15

Below are 3 compounds. Give each one its half-life at 0.5 μM.
1. CC(=O)Nc1ccc(Oc2ccc(F)cc2F)c(-c2cn(C)c(=O)c3[nH]ccc23)c1
2. Cn1cc(-c2cc(CS(C)(=O)=O)ccc2Oc2ccc(F)cc2F)c2cc[nH]c2c1=O
3. CCS(=O)(=O)Nc1ccc(Oc2ccc(F)cc2F)c(-c2nn(C)c(=O)c3[nH]ccc23)c1

## Output
1: 3; 2: 29; 3: 21

Below are 2 compounds. Give each one its half-life at 0.5 μM.
1. Cc1ccc(F)c(Oc2ccc(S(C)(=O)=O)cc2-c2cn(C)c(=O)c3[nH]ccc23)c1
2. Cn1cc(-c2cc(S(C)(=O)=O)ccc2OCC2CCCC2)c2cc[nH]c2c1=O

## Output
1: 8; 2: 8

* * *

- Procedure details: Rat liver microsome stability assay
- Format: in vitro ADME
- Condition details: rat liver microsomes (male Sprague-Dawley), 0.5 μM test compound, 0.25 mg/mL microsomal protein, pH 7.4, 37° C.; read-out: Stability in rat liver microsomes (t1/2 in minutes)
Checkbox rule: half-life at 0.5 μM lower than 50 min = t; half-life at 0.5 μM not lower than 50 min = f.

Take a look at these entries with their results.
1) CCS(=O)(=O)N(CC1CC1)c1ccc(Oc2ccc(F)cc2F)c(-c2cn(C)c(=O)c3[nH]ccc23)c1 [Example 343] : t
2) CCS(=O)(=O)c1ccc(OC2CCC(F)(F)CC2)c(-c2cn(C)c(=O)c3[nH]ccc23)c1 [Example 169] : t
3) Cn1cc(-c2cc(S(N)(=O)=O)ccc2Oc2ccc(F)cc2F)c2cc[nH]c2c1=O [Example 146] : f
4) CC(COC(C)(C)C)Oc1ccc(S(C)(=O)=O)cc1-c1cn(C)c(=O)c2[nH]ccc12 (centres unmarked) [Example 229] : t
5) CCS(=O)(=O)c1ccc(NC2CC2)c(-c2cn(C)c(=O)c3[nH]ccc23)c1 [Example 267] : t

## Input Lab note: half-life at 0.5 μM threshold 50 min. Does this molecule come in strictly under it? CN1CCN(Cc2cc3c(-c4cc(S(C)(=O)=O)ccc4Oc4ccc(F)cc4F)cn(C)c(=O)c3[nH]2)CC1 [Example 281]
## Output f

## Input Lab note: half-life at 0.5 μM threshold 50 min. Does this molecule come in strictly under it? CCS(=O)(=O)Nc1ccc(Oc2ccc(F)cc2F)c(-c2cn(C)c(=O)c3[nH]ncc23)c1 [Example 320]
## Output f
